# ASSAYED_SYSTEM: Angiotensin II-receptor (Rattus norvegicus)
# Construct: The tissue (rats lung) is homogenised in Tris-buffer; from tissue; host or cells: rat lung homogenate (washed 20,000x g pellet)
# Sequence (P25095 whole entry): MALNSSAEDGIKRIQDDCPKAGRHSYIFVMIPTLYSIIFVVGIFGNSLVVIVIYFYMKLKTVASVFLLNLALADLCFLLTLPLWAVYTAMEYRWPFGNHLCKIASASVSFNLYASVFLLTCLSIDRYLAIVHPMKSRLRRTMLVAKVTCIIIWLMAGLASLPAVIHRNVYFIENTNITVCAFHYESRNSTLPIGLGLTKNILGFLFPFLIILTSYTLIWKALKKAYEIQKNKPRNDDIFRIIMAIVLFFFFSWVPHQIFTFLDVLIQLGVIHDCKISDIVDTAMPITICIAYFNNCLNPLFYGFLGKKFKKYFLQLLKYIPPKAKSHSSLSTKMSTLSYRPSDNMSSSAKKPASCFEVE
# TEST_PROTOCOL: Angiotensin II-receptor bonding
# Assay type: binding
# EXPERIMENTAL_PARAMETERS: rats lung homogenate; 50 pM [^125 I]-angiotensin II; 60 minutes at 37° C.; pH 7.40; read-out: IC50
# Protocol: Description of method: Angiotensin II-receptor bonding The tissue (rats lung) is homogenised in Tris-buffer (50 mMol Tris, 150 mMol NaCl, 5 mMol EDTA, pH 7.40) and centrifuged twice for 20 minutes at 20,000x g. The finished pellets are resuspended in incubating buffer (50 mMol Tris, 5 mMol MgCl2, 0.2% BSA, pH 7.40) 1:75, based on the moist weight of the tissue. […] The bound radioactivity is measured using a gamma-counter. […]
Below, each entry is listed with its recorded IC50.
Respond with the bare value in nM.

Name the recorded IC50 for CCCCc1nc2c(C)cccc2c(=O)n1Cc1ccc(OC(C(=O)O)c2ccccc2)cc1 (centres unmarked) . 2000

Quick one: IC50 of CCCc1nc2c(C)cc(-c3nc4ccccc4n3C)cc2n1Cc1ccc(OC(C(=O)O)c2ccccc2)cc1 (centres unmarked) ? 4

---

# ASSAYED_SYSTEM: Angiotensin II-receptor (Rattus norvegicus)
# Construct: The tissue (rats lung) is homogenised in Tris-buffer; from tissue; host or cells: rat lung homogenate (washed 20,000x g pellet)
# TEST_PROTOCOL: Angiotensin II-receptor bonding
# Assay type: binding
# EXPERIMENTAL_PARAMETERS: rats lung homogenate; 50 pM [^125 I]-angiotensin II; 60 minutes at 37° C.; pH 7.40; read-out: IC50
PROPERTY_MEASURED: IC50 (nM)
# unit: nM | format: bare number

GET /values?readout=IC50&item= CCCCc1nc2ccc(NC(=O)N(C)C)cc2n1Cc1ccc(OC(C(=O)O)c2ccccc2)cc1 (stereo not drawn) 8

So what's the measured IC50 for this one? CCCc1nc2c(C)cccc2n1Cc1ccc(OC(C(=O)O)c2ccccc2)cc1 (stereo not drawn) 76

Tell me the measured IC50 of CCCCc1nc2cc(N3CCCN(Cc4ccccc4)C3=O)c(C)nc2n1Cc1ccc(OC(c2ccccc2)c2nnn[nH]2)cc1 (stereo not drawn) , please. 27

What value of IC50 has been reported for the following compound? Cc1cc(OCc2ccc(OC(C(=O)O)c3ccccc3)cc2)c2ccccc2n1 (stereo not drawn) 2000

Entry under review: CCCCc1nc2ccc(N(C)C(=O)CC)cc2n1Cc1ccc(OC(CC(C)C)C(=O)O)cc1 (stereo not drawn) . Reported IC50? 830

Would you kindly share the measured IC50 for CCCc1nc2c(C)cc(-c3nc4ccccc4n3C)cc2n1Cc1ccc(OC(c2ccccc2)c2nnn[nH]2)cc1 (stereo not drawn) ? 12

These data points were gathered from patent US5519138A.
